Target: SST2 (Homo sapiens, UniProt P30874)
Construct: host or cells: PathHunter CHO-K1 SST2 cells
Sequence (P30874 whole entry): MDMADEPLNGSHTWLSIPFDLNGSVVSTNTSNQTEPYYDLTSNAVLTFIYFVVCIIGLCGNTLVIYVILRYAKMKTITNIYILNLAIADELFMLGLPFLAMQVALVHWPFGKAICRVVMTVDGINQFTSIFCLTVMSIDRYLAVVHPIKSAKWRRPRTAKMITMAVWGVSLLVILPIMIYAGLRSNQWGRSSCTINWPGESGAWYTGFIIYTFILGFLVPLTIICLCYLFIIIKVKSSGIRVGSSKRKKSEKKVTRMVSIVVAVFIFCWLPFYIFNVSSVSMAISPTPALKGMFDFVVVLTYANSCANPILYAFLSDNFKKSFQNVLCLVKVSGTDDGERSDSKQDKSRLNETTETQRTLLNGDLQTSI
Assay: PathHunter CHO-K1 SST2 Internalization Assay
Type: cell-based
Conditions: PathHunter CHO-K1 SST2 cells; 90 min at 37 C; luminescence; read-out: Internalization EC50
# EC50 listing for each entry below
MEASURED PARAMETER: EC50 (nM)

COMPOUND | MEASURED PARAMETER | ASSAY RESULT
CC[C@H](C)[C@@H]([C@@H](CC(=O)N1CCCC1[C@H](OC)[C@@H](C)C(=O)N[C@H](C)[C@@H](O)c1ccccc1)OC)N(C)C(=O)[C@@H](NC(=O)[C@H](C(C)C)N(C)C(=O)OCc1ccc(NC(=O)[C@H](CCCNC(N)=O)NC(=O)[C@@H](NC(=O)[C@H](Cc2c[nH]cn2)NC(=O)CCOCCC(=O)NCCNc2ncc(-c3cc(C)cc(F)c3)c(N3CCC(N)CC3)c2-c2nc3ccc(Cl)cc3[nH]2)C(C)C)c(OCC(=O)O)c1)C(C)C (some centres unmarked) [Compound 202] | EC50 | 4.6
CC[C@H](C)[C@@H]([C@@H](CC(=O)N1CCC[C@H]1[C@H](OC)[C@@H](C)C(=O)N[C@H](C)[C@@H](O)c1ccccc1)OC)N(C)C(=O)[C@@H](NC(=O)[C@H](C(C)C)N(C)C(=O)OCc1ccc(NC(=O)[C@H](CCCNC(N)=O)NC(=O)[C@@H](NC(=O)c2cc(NCCOCCC(=O)NCCNc3ncc(-c4cc(C)cc(F)c4)c(N4CCC(N)CC4)c3-c3nc4ccc(Cl)cc4[nH]3)cc(C(=O)NCC(N)=O)c2)C(C)C)cc1)C(C)C [Compound 186] | EC50 | 2.7
CC[C@H](C)[C@@H]([C@@H](CC(=O)N1CCC[C@H]1[C@H](OC)[C@@H](C)C(=O)N[C@H](C)[C@@H](O)c1ccccc1)OC)N(C)C(=O)[C@@H](NC(=O)[C@H](C(C)C)N(C)C(=O)OCc1ccc(NC(=O)[C@H](CCCNC(N)=O)NC(=O)[C@@H](NC(=O)[C@H](CCC(=O)O)NC(=O)CCOCCC(=O)NCCNc2ncc(-c3cc(C)cc(F)c3)c(N3CCC(N)CC3)c2-c2nc3ccc(Cl)cc3[nH]2)C(C)C)cc1C(F)(F)F)C(C)C [Compound 2] | EC50 | 8.6
CC[C@H](C)[C@@H]([C@@H](CC(=O)N1CCC[C@H]1[C@H](OC)[C@@H](C)C(=O)N[C@H](C)[C@@H](O)c1ccccc1)OC)N(C)C(=O)[C@@H](NC(=O)[C@H](C(C)C)N(C)C(=O)OCc1ccc(NC(=O)[C@H](CCCNC(N)=O)NC(=O)[C@@H](NC(=O)CCOCCC(=O)NCCNc2ncc(-c3cc(C)cc(F)c3)c(N3CCC(N)CC3)c2-c2nc3ccc(Cl)cc3[nH]2)C(C)C)c(O[C@@H]2O[C@H](C(=O)N(C)CCS(=O)(=O)O)[C@@H](O)[C@H](O)[C@H]2O)c1)C(C)C [Compound 218] | EC50 | 2.8
CC[C@H](C)[C@@H]([C@@H](CC(=O)N1CCC[C@H]1[C@H](OC)[C@@H](C)C(=O)N[C@H](C)[C@@H](O)c1ccccc1)OC)N(C)C(=O)[C@@H](NC(=O)[C@H](C(C)C)N(C)C(=O)OCc1ccc(NC(=O)[C@H](CCCNC(N)=O)NC(=O)[C@@H](NC(=O)C2(NC(=O)CCCC(=O)N(C)CC(=O)NCCNc3ncc(-c4cc(C)cc(F)c4)c(N4CCC(N)CC4)c3-c3nc4ccc(Cl)cc4[nH]3)CCN(CC(=O)O)CC2)C(C)C)cc1)C(C)C [Compound 173] | EC50 | 19

---

Biological target: human somatostatin receptor subtype 2 (Homo sapiens)
Construct: expressed in transfected cells
Test: Functional assay for SSTR2 agonists (HTRF cAMP)
Assay type: cell-based
Conditions: CHO-K1 cells stably expressing human SST2; NKH477-stimulated cAMP; 20 min at 37 C; read-out: hSST2 cAMP Avg EC50
From the text: General overview: All five SSTR subtypes are Gi coupled G-protein coupled receptors (GPCRs) that lead to decreases in intracellular cyclic AMP (cAMP) when activated by an agonist. Therefore, measurement of intracellular cAMP levels can be used to assess whether compounds of the invention are agonists of SSTR subtypes (John Kelly, Troy Stevens, W. Joseph Thompson, and Roland Seifert, Current Protocols in Pharmacology. 2005, 2.2.1-2.2). One example of an intracellular cAMP assay is described below. […]
pEC50: −log10 of the molar value.
# pEC50 listing for each entry below

MOLECULE | pEC50
CC[C@H](C)[C@@H]([C@@H](CC(=O)N1CCC[C@H]1[C@H](OC)[C@@H](C)C(=O)N[C@H](C)[C@@H](O)c1ccccc1)OC)N(C)C(=O)[C@@H](NC(=O)[C@H](C(C)C)N(C)C(=O)OCc1ccc(NC(=O)[C@H](CCCNC(N)=O)NC(=O)[C@@H](NC(=O)[C@H](CCC(N)=O)NC(=O)CCOCCC(=O)NCCNc2ncc(-c3cc(C)cc(F)c3)c(N3CCC(N)CC3)c2-c2nc3ccc(Cl)cc3[nH]2)C(C)C)cc1C(=O)O)C(C)C [Compound 5] | 9.54
CC[C@H](C)[C@@H]([C@@H](CC(=O)N1CCC[C@H]1[C@H](OC)[C@@H](C)C(=O)N[C@H](C)[C@@H](O)c1ccccc1)OC)N(C)C(=O)[C@@H](NC(=O)[C@H](C(C)C)N(C)C(=O)OCc1ccc(NC(=O)[C@H](C)NC(=O)[C@@H](NC(=O)[C@H](CS(=O)(=O)O)NC(=O)CCOCCC(=O)NCCNc2ncc(-c3cc(C)cc(F)c3)c(N3CCC(N)CC3)c2-c2nc3ccc(Cl)cc3[nH]2)C(C)C)cc1C(=O)NCCN)C(C)C [Compound 27] | 9.92
CC[C@H](C)[C@@H]([C@@H](CC(=O)N1CCC[C@H]1[C@H](OC)[C@@H](C)C(=O)N[C@H](C)[C@@H](O)c1ccccc1)OC)N(C)C(=O)[C@@H](NC(=O)[C@H](C(C)C)N(C)C(=O)OCc1ccc(NC(=O)[C@H](CCCNC(N)=O)NC(=O)[C@@H](NC(=O)C[C@@H](N)C(=O)NCCOCCOCCOCCOCCC(=O)NCCNc2ncc(-c3cc(C)cc(F)c3)c(N3CCC(N)CC3)c2-c2nc3ccc(Cl)cc3[nH]2)C(C)C)c(OCC(=O)O)c1)C(C)C [Compound 23] | 9.54

---

Molecular target: SST2 (Homo sapiens)
Construct: host or cells: PathHunter CHO-K1 SST2 cells
Test: PathHunter CHO-K1 SST2 Internalization Assay
Format: cell-based
Conditions: PathHunter CHO-K1 SST2 cells; 90 min at 37 C; luminescence; read-out: Internalization EC50
pEC50: −log10 of the molar value.
MEASURED PARAMETER: pEC50

SMILES STR | ASSAY RESULT
CC[C@H](C)[C@@H]([C@@H](CC(=O)N1CCC[C@H]1[C@H](OC)[C@@H](C)C(=O)N[C@H](C)[C@@H](O)c1ccccc1)OC)N(C)C(=O)[C@@H](NC(=O)[C@H](C(C)C)N(C)C(=O)OCc1ccc(NC(=O)[C@H](CCCNC(N)=O)NC(=O)[C@@H](NC(=O)C[C@@H](N)C(=O)NCCOCCNC(=O)c2cc(NCCOCCC(=O)NCCNc3ncc(-c4cc(C)cc(F)c4)c(N4CCC(N)CC4)c3-c3nc4ccc(Cl)cc4[nH]3)cc(C(=O)NCC(=O)O)c2)C(C)C)cc1)C(C)C | 8.20
CC[C@H](C)[C@@H]([C@@H](CC(=O)N1CCC[C@H]1[C@H](OC)[C@@H](C)C(=O)N[C@H](C)[C@@H](O)c1ccccc1)OC)N(C)C(=O)[C@@H](NC(=O)[C@H](C(C)C)N(C)C(=O)OCc1ccc(NC(=O)[C@H](C)NC(=O)[C@@H](NC(=O)CCOCCC(=O)NCCNc2ncc(-c3cc(C)cc(F)c3)c(N3CCC(N)CC3)c2-c2cc3ccc(F)cc3[nH]2)C(C)C)c(O[C@@H]2O[C@H](C(=O)O)[C@@H](O)[C@H](O)[C@H]2O)c1)C(C)C | 7.85

---

Target: human somatostatin receptor subtype 2 (Homo sapiens, UniProt P30874)
Construct: expressed in transfected cells
Sequence (P30874 whole entry): as above
Experiment: Functional assay for SSTR2 agonists (HTRF cAMP)
Assay type: cell-based
Details: CHO-K1 cells stably expressing human SST2; NKH477-stimulated cAMP; 20 min at 37 C; read-out: hSST2 cAMP Avg EC50
pEC50: −log10 of the molar value.
# pEC50 listing for each entry below
MEASURED PARAMETER: pEC50

SMILES STR | ASSAY RESULT
CC[C@H](C)[C@@H]([C@@H](CC(=O)N1CCC[C@H]1[C@H](OC)[C@@H](C)C(=O)N[C@H](C)[C@@H](O)c1ccccc1)OC)N(C)C(=O)[C@@H](NC(=O)[C@H](C(C)C)N(C)C(=O)OCc1ccc(NC(=O)[C@H](CCCNC(N)=O)NC(=O)[C@@H](NC(=O)c2cc(NCCOCCC(=O)N(C)CC(=O)NCCNc3ncc(-c4cc(C)cc(F)c4)c(N4CCC(N)CC4)c3-c3nc4ccc(Cl)cc4[nH]3)cc(C(=O)NCC(=O)O)c2)C(C)C)cc1)C(C)C | 9.57
CC[C@H](C)[C@@H]([C@@H](CC(=O)N1CCC[C@H]1[C@H](OC)[C@@H](C)C(=O)N[C@H](C)[C@@H](O)c1ccccc1)OC)N(C)C(=O)[C@@H](NC(=O)[C@H](C(C)C)N(C)C(=O)OCc1ccc(NC(=O)[C@H](CCCNC(N)=O)NC(=O)[C@@H](NC(=O)C[C@@H](N)C(=O)NCCOCCC(=O)NCCNc2ncc(-c3cc(C)cc(F)c3)c(N3CCC(NC)CC3)c2-c2nc3ccc(Cl)cc3[nH]2)C(C)C)c(O[C@@H]2O[C@H](C(=O)O)[C@@H](O)[C@H](O)[C@H]2O)c1)C(C)C | 9.85
CC[C@H](C)[C@@H]([C@@H](CC(=O)N1CCC[C@H]1[C@H](OC)[C@@H](C)C(=O)N[C@H](C)[C@@H](O)c1ccccc1)OC)N(C)C(=O)[C@@H](NC(=O)[C@H](C(C)C)N(C)C(=O)OCc1ccc(NC(=O)[C@H](CCCNC(N)=O)NC(=O)[C@@H](NC(=O)c2cc(NCCOCCOCCOCCC(=O)NCCNc3ncc(-c4cc(C)cc(F)c4)c(N4CCC(N)CC4)c3-c3nc4ccc(Cl)cc4[nH]3)cc(C(=O)O)c2)C(C)C)cc1)C(C)C | 9.64
CC[C@H](C)[C@@H]([C@@H](CC(=O)N1CCC[C@H]1[C@H](OC)[C@@H](C)C(=O)N[C@H](C)[C@@H](O)c1ccccc1)OC)N(C)C(=O)[C@@H](NC(=O)[C@H](C(C)C)N(C)C(=O)OCc1ccc(NC(=O)[C@H](CCCNC(N)=O)NC(=O)[C@@H](NC(=O)[C@H](CCC(=O)O)NC(=O)CCOCCC(=O)NCCNc2ncc(-c3cc(C)cc(F)c3)c(N3CCC(N)CC3)c2-c2nc3ccc(Cl)cc3[nH]2)C(C)C)cc1C(=O)NCCNC)C(C)C | 9.51
CC[C@H](C)[C@@H]([C@@H](CC(=O)N1CCC[C@H]1[C@H](OC)[C@@H](C)C(=O)N[C@H](C)[C@@H](O)c1ccccc1)OC)N(C)C(=O)[C@@H](NC(=O)[C@H](C(C)C)N(C)C(=O)OCc1ccc(NC(=O)[C@H](CCCNC(N)=O)NC(=O)[C@@H](NC(=O)C[C@@H](N)C(=O)NCCOCCC(=O)NCCNc2ncc(-c3cc(C)cc(F)c3)c(N3CCC(N)CC3)c2-c2nc3ccc(Cl)cc3[nH]2)C(C)C)c(OCC(=O)O)c1)C(C)C | 9.77
